Tested on: Nuclear factor NF-kappa-B complex (Homo sapiens) (UniProt Q00653+P19838+Q04206)
Sequence (P19838 whole entry, looked up): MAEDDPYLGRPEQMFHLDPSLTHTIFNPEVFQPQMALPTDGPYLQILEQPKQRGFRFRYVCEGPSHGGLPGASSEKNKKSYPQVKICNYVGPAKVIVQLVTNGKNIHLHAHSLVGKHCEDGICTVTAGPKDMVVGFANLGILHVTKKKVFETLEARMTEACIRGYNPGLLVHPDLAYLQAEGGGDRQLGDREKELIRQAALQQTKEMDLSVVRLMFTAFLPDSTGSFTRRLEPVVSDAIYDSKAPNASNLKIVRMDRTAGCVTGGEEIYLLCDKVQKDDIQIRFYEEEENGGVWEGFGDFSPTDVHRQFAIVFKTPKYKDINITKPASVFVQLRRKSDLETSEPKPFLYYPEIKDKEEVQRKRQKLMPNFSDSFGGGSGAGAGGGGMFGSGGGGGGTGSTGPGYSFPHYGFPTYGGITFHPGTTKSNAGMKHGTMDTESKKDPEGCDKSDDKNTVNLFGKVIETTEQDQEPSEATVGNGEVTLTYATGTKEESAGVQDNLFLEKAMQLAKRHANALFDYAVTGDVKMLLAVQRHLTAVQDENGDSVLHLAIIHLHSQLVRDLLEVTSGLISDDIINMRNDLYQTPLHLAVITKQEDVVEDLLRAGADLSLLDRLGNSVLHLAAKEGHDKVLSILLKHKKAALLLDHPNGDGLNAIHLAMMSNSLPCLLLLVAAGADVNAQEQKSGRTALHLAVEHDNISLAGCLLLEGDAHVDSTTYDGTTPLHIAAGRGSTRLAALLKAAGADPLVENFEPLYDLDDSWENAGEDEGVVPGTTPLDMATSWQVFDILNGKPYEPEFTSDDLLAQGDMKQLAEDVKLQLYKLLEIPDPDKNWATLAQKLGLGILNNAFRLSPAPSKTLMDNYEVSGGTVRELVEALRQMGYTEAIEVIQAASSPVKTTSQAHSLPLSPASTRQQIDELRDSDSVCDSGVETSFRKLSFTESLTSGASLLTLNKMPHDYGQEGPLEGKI
Sequence (Q00653 whole entry, looked up): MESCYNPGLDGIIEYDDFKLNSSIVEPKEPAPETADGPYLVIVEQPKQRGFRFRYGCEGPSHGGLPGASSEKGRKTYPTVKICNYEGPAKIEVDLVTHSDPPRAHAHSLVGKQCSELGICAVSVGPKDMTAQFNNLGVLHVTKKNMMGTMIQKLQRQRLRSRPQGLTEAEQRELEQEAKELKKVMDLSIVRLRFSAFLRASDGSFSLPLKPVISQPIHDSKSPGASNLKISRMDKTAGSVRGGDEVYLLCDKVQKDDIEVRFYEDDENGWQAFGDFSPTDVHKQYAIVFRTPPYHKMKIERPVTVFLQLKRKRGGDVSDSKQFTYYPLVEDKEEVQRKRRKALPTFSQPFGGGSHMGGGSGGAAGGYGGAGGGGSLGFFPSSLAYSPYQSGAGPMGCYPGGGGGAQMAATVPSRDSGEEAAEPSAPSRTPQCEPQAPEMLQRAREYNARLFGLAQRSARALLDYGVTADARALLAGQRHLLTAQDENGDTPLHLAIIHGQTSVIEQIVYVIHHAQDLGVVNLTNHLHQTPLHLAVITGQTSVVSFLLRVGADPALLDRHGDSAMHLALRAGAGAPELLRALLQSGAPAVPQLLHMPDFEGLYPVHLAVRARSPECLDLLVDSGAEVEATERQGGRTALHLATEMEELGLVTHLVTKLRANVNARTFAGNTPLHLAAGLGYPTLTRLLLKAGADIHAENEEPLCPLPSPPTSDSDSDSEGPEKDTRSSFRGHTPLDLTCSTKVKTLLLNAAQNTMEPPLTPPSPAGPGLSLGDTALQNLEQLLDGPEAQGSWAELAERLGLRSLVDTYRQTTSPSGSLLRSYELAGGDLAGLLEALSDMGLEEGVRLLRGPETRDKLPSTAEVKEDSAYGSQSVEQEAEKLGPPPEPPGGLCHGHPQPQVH
Sequence (Q04206 whole entry, looked up): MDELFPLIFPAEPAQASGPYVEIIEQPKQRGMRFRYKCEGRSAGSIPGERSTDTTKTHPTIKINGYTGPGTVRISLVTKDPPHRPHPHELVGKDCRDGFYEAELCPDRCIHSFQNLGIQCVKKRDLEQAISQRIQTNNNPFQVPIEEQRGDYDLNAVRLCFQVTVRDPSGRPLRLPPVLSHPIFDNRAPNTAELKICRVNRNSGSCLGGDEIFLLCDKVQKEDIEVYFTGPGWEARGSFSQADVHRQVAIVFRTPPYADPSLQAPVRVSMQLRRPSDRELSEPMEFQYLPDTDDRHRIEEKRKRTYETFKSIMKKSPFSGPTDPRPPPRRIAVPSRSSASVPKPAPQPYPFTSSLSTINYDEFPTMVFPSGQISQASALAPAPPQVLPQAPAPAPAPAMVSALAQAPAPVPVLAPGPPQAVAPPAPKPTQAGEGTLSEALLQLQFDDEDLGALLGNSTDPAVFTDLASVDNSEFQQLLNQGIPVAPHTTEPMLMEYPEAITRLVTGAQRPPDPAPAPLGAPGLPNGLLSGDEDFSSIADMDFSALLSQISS
Test name: Inhibition of TNF-alpha-induced NF-kappaB activity in HEK293 cells after 6 hrs by luciferase reporter gene assay
Type: cell-based
Readout: ED50

[[record]]
compound = "CC1=C(O)C(=O)C[C@]2(C)[C@H]3CCc4cocc4[C@]3(CO)CCC12O (some centres undefined)"
tested_on = "Nuclear factor NF-kappa-B complex (Homo sapiens) (UniProt Q00653+P19838+Q04206)"
val = "> 50 µM"

[[record]]
compound = "CC1=C(O)C(=O)C[C@@]2(C)[C@H]1CC[C@@]1(CO)c3cnccc3C(=O)C[C@@H]12"
tested_on = "Nuclear factor NF-kappa-B complex (Homo sapiens) (UniProt Q00653+P19838+Q04206)"
val = "> 50 µM"

[[record]]
compound = "C[C@]12CC(=O)OC[C@@](C)(C(=O)O)[C@@H]1CC[C@@]1(CO)c3cocc3CC[C@@H]12"
tested_on = "Nuclear factor NF-kappa-B complex (Homo sapiens) (UniProt Q00653+P19838+Q04206)"
val = "> 50 µM"

[[record]]
compound = "CC1=C(O)C(=O)C[C@@]2(C)[C@H]1CC[C@@]1(CO)c3cocc3CC[C@@H]12"
tested_on = "Nuclear factor NF-kappa-B complex (Homo sapiens) (UniProt Q00653+P19838+Q04206)"
val = "> 50 µM"

